The next entries give measured pKi for UniProtKB P19020.
Sequence (P19020 whole entry): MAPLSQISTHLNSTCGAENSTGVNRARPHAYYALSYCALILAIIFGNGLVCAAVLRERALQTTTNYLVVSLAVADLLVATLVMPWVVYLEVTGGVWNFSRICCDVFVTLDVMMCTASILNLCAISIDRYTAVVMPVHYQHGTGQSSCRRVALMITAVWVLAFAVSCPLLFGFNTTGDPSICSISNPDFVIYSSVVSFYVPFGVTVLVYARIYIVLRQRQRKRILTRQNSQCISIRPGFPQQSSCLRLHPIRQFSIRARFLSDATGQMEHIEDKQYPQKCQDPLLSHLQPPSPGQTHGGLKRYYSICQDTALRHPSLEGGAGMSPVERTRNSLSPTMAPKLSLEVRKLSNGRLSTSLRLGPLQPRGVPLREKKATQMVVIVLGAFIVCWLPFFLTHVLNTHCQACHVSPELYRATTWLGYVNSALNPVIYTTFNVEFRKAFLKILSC
pKi here is simply -log10 of the concentration when that concentration is written in mol/L.

Below, 2 compounds whose answers are already recorded.
>  <smiles-string>
CCCN(CC[C@H]1CC[C@H](NS(=O)(=O)c2cccc(F)c2)CC1)[C@H]1CCc2nc(N)sc2C1

>  <quantity>
pKi

>  <result-number>
9.14

$$$$
>  <smiles-string>
CCCN(CC[C@H]1CC[C@H](NS(=O)(=O)c2ccc(Cl)cc2)CC1)[C@H]1CCc2nc(N)sc2C1

>  <quantity>
pKi

>  <result-number>
9.02

$$$$

Read the next record carefully.
Form field: pKi recorded for CCCN(CC[C@H]1CC[C@H](NC(=O)c2ccc(-c3noc(C)n3)cc2)CC1)[C@H]1CCc2nc(N)sc2C1 with UniProtKB P19020 (enter value) 8.89

---

# protocol-description: Displacement of [3H]SCH23390 from dopamine D1 like receptor in rat brain homogenates
# Format: tissue-based
Recorded measurements of Ki, one per entry
Give the quantity in µM, number only.

Below, 3 molecules whose answers are already recorded.
>  <smiles-string>
CCCN(CC[C@H]1CC[C@H](NC(=O)/C=C/c2ccccc2OC)CC1)[C@H]1CCc2nc(N)sc2C1

>  <unit-of-measurement>
µM

>  <result-number>
7.92

$$$$
>  <smiles-string>
CCCN(CC[C@H]1CC[C@H](NS(=O)(=O)c2cccc(C)c2)CC1)[C@H]1CCc2nc(N)sc2C1

>  <unit-of-measurement>
µM

>  <result-number>
8.4

$$$$
>  <smiles-string>
CCCN(CC[C@H]1CC[C@H](NC(=O)c2cccc(-n3cncn3)c2)CC1)[C@H]1CCc2nc(N)sc2C1

>  <unit-of-measurement>
µM

>  <result-number>
59.7

$$$$

Could you share which Ki value was measured for CCCN(CC[C@H]1CC[C@H](NC(=O)/C=C/c2cccc(F)c2)CC1)[C@H]1CCc2nc(N)sc2C1 ? 6.61

---

# protocol-description: Displacement of [3H]SCH23390 from dopamine D1 like receptor in rat brain homogenates
# Assay type: tissue-based
Recorded measurements of pKi, one per entry
pKi here is simply -log10 of the concentration when that concentration is written in mol/L.

>  <smiles-string>
CCCN(CC[C@H]1CC[C@H](NC(=O)c2ccc3ccccc3n2)CC1)[C@H]1CCc2nc(N)sc2C1

>  <result-number>
4.95

$$$$
>  <smiles-string>
CCCN(CC[C@H]1CC[C@H](NC(=O)c2cccc(-n3ccnc3)c2)CC1)[C@H]1CCc2nc(N)sc2C1

>  <result-number>
4.61

$$$$
>  <smiles-string>
CCCN(CC[C@H]1CC[C@H](NC(=O)c2cccc(-c3noc(CC)n3)c2)CC1)[C@H]1CCc2nc(N)sc2C1

>  <result-number>
5.30

$$$$
>  <smiles-string>
CCCN(CC[C@H]1CC[C@H](NS(=O)(=O)c2ccc(OC)cc2)CC1)[C@H]1CCc2nc(N)sc2C1

>  <result-number>
4.67

$$$$
>  <smiles-string>
CCCN(CC[C@H]1CC[C@H](NC(=O)/C=C/c2cccc(Cl)c2)CC1)[C@H]1CCc2nc(N)sc2C1

>  <result-number>
5.24

$$$$

Could you share which pKi value was measured for CCCN(CC[C@H]1CC[C@H](NC(=O)c2cccc3ncccc23)CC1)[C@H]1CCc2nc(N)sc2C1 ? 4.36

Could you share which pKi value was measured for CCCN(CC[C@H]1CC[C@H](NC(=O)/C=C/c2ccc(Cl)cc2)CC1)[C@H]1CCc2nc(N)sc2C1 ? 5.39

---

Recorded measurements of Ratio Ki, one per entry
# Species: Rattus norvegicus
# protocol-description: Selectivity ratio of Ki for dopamine D1 like receptor in rat brain homogenates to Ki for dopamine D3 receptor in rat brain homogenates
# Type: tissue-based
Just the number.

Below, 3 compounds whose answers are already recorded.
>  <smiles-string>
CCCN(CC[C@H]1CC[C@H](NC(=O)/C=C/c2cccc(OC)c2)CC1)[C@H]1CCc2nc(N)sc2C1

>  <Ratio Ki>
953

$$$$
>  <smiles-string>
CCCN(CC[C@H]1CC[C@H](NC(=O)/C=C/c2ccc(Cl)cc2)CC1)[C@H]1CCc2nc(N)sc2C1

>  <Ratio Ki>
1600

$$$$
>  <smiles-string>
CCCN(CC[C@H]1CC[C@H](NC(=O)c2ccccc2-n2cccn2)CC1)[C@H]1CCc2nc(N)sc2C1

>  <Ratio Ki>
23800

$$$$

Read the next record carefully.
Could you share which Ratio Ki value was measured for CCCN(CC[C@H]1CC[C@H](NS(=O)(=O)c2ccc3ccccc3c2)CC1)[C@H]1CCc2nc(N)sc2C1 ? 2430

---

# protocol-description: Displacement of [3H]Spiperone from dopamine D2 like receptor in rat brain homogenates
# Type: tissue-based
quantity: log10(Ki) (log10 of the value in nM)
Log10 applied to Ki; unit prior to transform: nM.

Could you share which log10(Ki) value was measured for CCCN(CC[C@H]1CC[C@H](NC(=O)c2cccc(-c3noc(CC)n3)c2)CC1)[C@H]1CCc2nc(N)sc2C1 ? 2.69

Could you share which log10(Ki) value was measured for CCCN(CC[C@H]1CC[C@H](NC(=O)c2ccc(-c3noc(CC)n3)cc2)CC1)[C@H]1CCc2nc(N)sc2C1 ? 2.52

Could you share which log10(Ki) value was measured for CCCN(CC[C@H]1CC[C@H](NS(=O)(=O)c2ccc(Cl)nc2)CC1)[C@H]1CCc2nc(N)sc2C1 ? 1.45

Could you share which log10(Ki) value was measured for CCCN(CC[C@H]1CC[C@H](NC(=O)c2cccc3ncccc23)CC1)[C@H]1CCc2nc(N)sc2C1 ? 1.86

Could you share which log10(Ki) value was measured for CCCN(CC[C@H]1CC[C@H](NC(=O)c2ccc(-n3ccnc3)cc2)CC1)[C@H]1CCc2nc(N)sc2C1 ? 1.36

---

# protocol-description: Displacement of [3H]SCH23390 from dopamine D1 like receptor in rat brain homogenates
# Assay type: tissue-based
quantity: pKi
pKi here is simply -log10 of the concentration when that concentration is written in mol/L.

Below, 3 compounds whose answers are already recorded.
>  <smiles-string>
CCCN(CC[C@H]1CC[C@H](NC(=O)c2ccc(-c3noc(CC)n3)cc2)CC1)[C@H]1CCc2nc(N)sc2C1

>  <result-number>
4.75

$$$$
>  <smiles-string>
CCCN(CC[C@H]1CC[C@H](NC(=O)/C=C/c2ccc(OC)cc2)CC1)[C@H]1CCc2nc(N)sc2C1

>  <result-number>
5.10

$$$$
>  <smiles-string>
CCCN(CC[C@H]1CC[C@H](NC(=O)/C=C/c2ccccc2Cl)CC1)[C@H]1CCc2nc(N)sc2C1

>  <result-number>
5.26

$$$$

Read the next record carefully.
Could you share which pKi value was measured for CCCN(CC[C@H]1CC[C@H](NC(=O)c2cccc3cnccc23)CC1)[C@H]1CCc2nc(N)sc2C1 ? 4.58

---

Recorded measurements of Ki, one per entry
# protocol-description: Displacement of [3H]Spiperone from dopamine D2 like receptor in rat brain homogenates
# Format: tissue-based
# output: number + unit

Below, 4 compounds whose answers are already recorded.
>  <smiles-string>
CCCN(CC[C@H]1CC[C@H](NC(=O)c2cccc(-c3noc(C)n3)c2)CC1)[C@H]1CCc2nc(N)sc2C1

>  <result>
0.359 µM

$$$$
>  <smiles-string>
CCCN(CC[C@H]1CC[C@H](NC(=O)c2ccc(-n3cncn3)cc2)CC1)[C@H]1CCc2nc(N)sc2C1

>  <result>
0.056 µM

$$$$
>  <smiles-string>
CCCN(CC[C@H]1CC[C@H](NC(=O)c2ccc(-c3noc(C)n3)cc2)CC1)[C@H]1CCc2nc(N)sc2C1

>  <result>
0.442 µM

$$$$
>  <smiles-string>
CCCN(CC[C@H]1CC[C@H](NC(=O)c2cccc(-n3cncn3)c2)CC1)[C@H]1CCc2nc(N)sc2C1

>  <result>
0.043 µM

$$$$

Read the next record carefully.
Could you share which Ki value was measured for CCCN(CC[C@H]1CC[C@H](NS(=O)(=O)c2ccc3ccccc3c2)CC1)[C@H]1CCc2nc(N)sc2C1 ? 0.014 µM

---

# Species: Rattus norvegicus
# protocol-description: Selectivity ratio of Ki for dopamine D1 like receptor in rat brain homogenates to Ki for dopamine D3 receptor in rat brain homogenates
# Assay type: tissue-based
quantity: Ratio Ki
Just the number.

Below, 5 compounds whose answers are already recorded.
>  <smiles-string>
CCCN(CC[C@H]1CC[C@H](NC(=O)/C=C/c2ccccc2OC)CC1)[C@H]1CCc2nc(N)sc2C1

>  <Ratio Ki>
983

$$$$
>  <smiles-string>
CCCN(CC[C@H]1CC[C@H](NS(=O)(=O)c2ccc(Cl)nc2)CC1)[C@H]1CCc2nc(N)sc2C1

>  <Ratio Ki>
12900

$$$$
>  <smiles-string>
CCCN(CC[C@H]1CC[C@H](NS(=O)(=O)c2ccc(C(C)(C)C)cc2)CC1)[C@H]1CCc2nc(N)sc2C1

>  <Ratio Ki>
626

$$$$
>  <smiles-string>
CCCN(CC[C@H]1CC[C@H](NC(=O)/C=C/c2cccc(Cl)c2)CC1)[C@H]1CCc2nc(N)sc2C1

>  <Ratio Ki>
4640

$$$$
>  <smiles-string>
CCCN(CC[C@H]1CC[C@H](NC(=O)/C=C/c2ccccc2F)CC1)[C@H]1CCc2nc(N)sc2C1

>  <Ratio Ki>
3510

$$$$

Could you share which Ratio Ki value was measured for CCCN(CC[C@H]1CC[C@H](NC(=O)c2cccc3ncccc23)CC1)[C@H]1CCc2nc(N)sc2C1 ? 27100

Could you share which Ratio Ki value was measured for CCCN(CC[C@H]1CC[C@H](NS(=O)(=O)c2ccccc2)CC1)[C@H]1CCc2nc(N)sc2C1 ? 29700

Could you share which Ratio Ki value was measured for CCCN(CC[C@H]1CC[C@H](NC(=O)c2ccc(-n3cccn3)cc2)CC1)[C@H]1CCc2nc(N)sc2C1 ? 4870

Could you share which Ratio Ki value was measured for CCCN(CC[C@H]1CC[C@H](NC(=O)/C=C/c2ccc(F)cc2)CC1)[C@H]1CCc2nc(N)sc2C1 ? 4670

Could you share which Ratio Ki value was measured for CCCN(CC[C@H]1CC[C@H](NC(=O)c2ccc(-c3noc(C)n3)cc2)CC1)[C@H]1CCc2nc(N)sc2C1 ? 27000

Could you share which Ratio Ki value was measured for CCCN(CC[C@H]1CC[C@H](NC(=O)/C=C/c2ccccc2Cl)CC1)[C@H]1CCc2nc(N)sc2C1 ? 4650

Could you share which Ratio Ki value was measured for CCCN(CC[C@H]1CC[C@H](NC(=O)/C=C/c2ccc(OC)cc2)CC1)[C@H]1CCc2nc(N)sc2C1 ? 1200

Could you share which Ratio Ki value was measured for CCCN(CC[C@H]1CC[C@H](NC(=O)c2cccc3cnccc23)CC1)[C@H]1CCc2nc(N)sc2C1 ? 4500

Could you share which Ratio Ki value was measured for CCCN(CC[C@H]1CC[C@H](NS(=O)(=O)c2ccc(Cl)cc2)CC1)[C@H]1CCc2nc(N)sc2C1 ? 8750

Could you share which Ratio Ki value was measured for CCCN(CC[C@H]1CC[C@H](NC(=O)c2ccc(-c3noc(C4CC4)n3)cc2)CC1)[C@H]1CCc2nc(N)sc2C1 ? 3240

Could you share which Ratio Ki value was measured for CCCN(CC[C@H]1CC[C@H](NC(=O)/C=C/c2cccc(F)c2)CC1)[C@H]1CCc2nc(N)sc2C1 ? 666

Source of measurements: ChEMBL document CHEMBL2146442
